- ASSAYED TARGET: human alpha-thrombin (THR) (Homo sapiens) (UniProt P00734+P00734)
- EXPERIMENT: competition (SPRi, free thrombin quantification)
- EXPERIMENTAL CONDITIONS: 5' amino modifier C6 as ordered; 20 mM Tris-HCl pH 7.4, 1 mM MgCl2, 120 mM NaCl, 10 mM KCl; thrombin co-injected with 500 nM cytochrome c; binding temperature not stated
pKd: −log10 of the molar value.
PARAMETER MEASURED: pKd

>>> recorded_result("TTTTTTTTTTAGTCCGTGGTAGGGGAGGTTGGGGTGACT [APT (anti-thrombin aptamer), solution competitor]")
8.50
